Target: T1, hu-CD74 antigen (R&D SYSTEMS catalog #3590-CD-050) (human, UniProt P04233-2 73-232, limits assumed)
T1 construct: Bought antigen; also called rhCD74; human CD74
T1 sequence (looked up): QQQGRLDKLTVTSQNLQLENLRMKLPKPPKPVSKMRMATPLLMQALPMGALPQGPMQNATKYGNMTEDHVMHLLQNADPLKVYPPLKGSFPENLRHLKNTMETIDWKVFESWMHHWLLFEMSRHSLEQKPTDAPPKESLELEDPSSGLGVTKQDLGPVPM
Experiment: SPR (Biacore T200), IgG captured on anti-human Fc, rhCD74 analyte

Binder: HC 1251_A06 (wt)/LC 1275_C10 (g) (antibody, human IgG1, kappa, V domains shown, IgG format) VH: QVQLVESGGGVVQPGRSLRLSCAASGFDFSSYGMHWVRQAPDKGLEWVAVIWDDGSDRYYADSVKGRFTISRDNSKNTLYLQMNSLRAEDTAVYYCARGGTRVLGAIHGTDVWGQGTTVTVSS VL: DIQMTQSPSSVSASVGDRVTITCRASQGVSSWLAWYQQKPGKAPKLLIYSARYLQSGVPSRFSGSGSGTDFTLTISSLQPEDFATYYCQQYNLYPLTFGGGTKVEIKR
Units: pM
Kd: 348

Binder: HC 1251_B08 (wt)/LC 1337_A07 (g) (antibody, human IgG1, kappa, V domains shown, IgG format) VH: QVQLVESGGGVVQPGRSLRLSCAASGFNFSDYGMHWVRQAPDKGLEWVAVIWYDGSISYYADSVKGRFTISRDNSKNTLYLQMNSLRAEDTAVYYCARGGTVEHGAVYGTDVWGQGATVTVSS VL: DIQMTQSPSSVSASVGDRVTITCRASQGISSWVAWYQQKPGKAPKLLIYGASRLQSGVPSRFSGSGSGTDFTLTISSLQPEDFATYYCQQYHTYPLTFGGGTKVEIKR
Units: pM
Kd: 611

Binder: HC 1251_A06 (wt)/LC 1337_A09 (wt) (antibody, human IgG1, kappa, V domains shown, IgG format) VH: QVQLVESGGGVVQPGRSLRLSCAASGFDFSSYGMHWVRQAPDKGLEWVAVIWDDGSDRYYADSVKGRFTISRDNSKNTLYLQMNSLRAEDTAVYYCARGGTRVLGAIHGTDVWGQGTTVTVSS VL: DIQMTQSPSSLSASVGDRVTITCRASQGIGSWLAWYQQKPEKAPKSLIYAADRLQSGVPSRFSGSGSGTDFTLTISSLQPEDFATYYCQQYHTYPLTFGGGTKVEIKR
Units: pM
Kd: 156

Binder: HC 1251_A06 (g)/LC 1337_A10 (g) (antibody, human IgG1, kappa, V domains shown, IgG format) VH: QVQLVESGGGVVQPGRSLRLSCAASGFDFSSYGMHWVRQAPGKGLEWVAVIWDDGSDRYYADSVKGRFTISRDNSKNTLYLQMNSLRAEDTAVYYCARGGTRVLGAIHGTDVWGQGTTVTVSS VL: DIQMTQSPSSVSASVGDRVTITCRASQGISSWVAWYQQKPGKAPKLLIYGSSRLQSGVPSRFSGSGSGTDFTLTISSLQPEDFATYYCQQYNTYPLTFGGGTKVEIKR
Units: pM
Kd: 389

Binder: HC 1251_A06 (g)/LC 1337_A09 (wt) (antibody, human IgG1, kappa, V domains shown, IgG format) VH: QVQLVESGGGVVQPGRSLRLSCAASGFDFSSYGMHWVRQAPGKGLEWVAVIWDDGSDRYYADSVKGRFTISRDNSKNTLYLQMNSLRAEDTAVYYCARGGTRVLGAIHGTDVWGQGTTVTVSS VL: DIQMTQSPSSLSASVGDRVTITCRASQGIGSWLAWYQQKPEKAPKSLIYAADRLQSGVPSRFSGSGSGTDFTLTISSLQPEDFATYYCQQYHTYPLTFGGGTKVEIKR
Units: pM
Kd: 189

Binder: HC 1251_B08 (wt)/LC 1337_A07 (wt) (antibody, human IgG1, kappa, V domains shown, IgG format) VH: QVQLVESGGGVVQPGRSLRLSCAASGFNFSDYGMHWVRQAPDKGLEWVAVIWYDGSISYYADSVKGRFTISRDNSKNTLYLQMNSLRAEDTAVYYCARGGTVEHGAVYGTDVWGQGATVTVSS VL: DIQMTQSPSSLSASVGDRVTITCRASQGISSWVAWYQQKPEKAPKSLIYGASRLQSGVPSRFSGSGSGTDFTLTISSLQPEDFATYYCQQYHTYPLTFGGGTKVEIKR
Units: pM
Kd: 211
